target-or-test-system: T1, prefusion stabilized SARS-CoV-2 S ectodomain (SARS-CoV-2, UniProt P0DTC2 14-1208)
T1 construct: also called SARS-CoV-2 spike ectodomain; ectodomain of the spike (S) homotrimer of SARS-CoV-2
test-name: ELISA, coated S ectodomain
Could you please report measured EC50 for the items listed next?
Kindly provide the numeric value in µg/mL only, without the unit symbol.

Challenge: What measured EC50 goes with FnC1t2p1_D4 (antibody, V domains shown) VH: QVQLVQSGSELKKPGASVKVSCKASGYTFLRFAMNWLRQAPGQGLEWMGWIDTNTGTPTYAQGFTGRFVFSLDTSVSTAYLQISSLKAEDTAVYYCARSLRGANLVPWGQGTLVTVSS VL: DIQMTQSPSSLSASVGDRVTITCQASQDVSNYLNWYQQQPGKAPKLLIYDAFNLETGVPSRFSGSGSGTDFTFTISSLQPEDIATYYCQQYDNLPLTFGGGTKVEIK ?
Response given: 0.02

Challenge: What measured EC50 goes with CnC2t1p1_B10 (antibody, V domains shown) VH: QVQLVQSGAEVKKPGSSVKVSCKASGGTFSSYAISWVRQAPGQGLEWMGGIIPIFGTANYAQKFQGRVTITADKSTSTAYMELSSLRSEDTAVYYCARVSGYDSSGYWGDYWGQGTLVTVSS VL: EIVLTQSPATLSLSPGERATLSCRASQSVSSYLAWYQQKPGQAPRLLIYDASNRATGIPARFSGSGSGTDFTLTISSLEPEDFAVYYCQQRSNWPPALTFGGGTKVEIK ?
Response given: 0.32

Challenge: What measured EC50 goes with CnC2t1p1_E8 (antibody, V domains shown) VH: QVQLVQSGAEVKNPGASVKVSCKASGYIFTNYYIHWVRQAPGQGLEWVGWIHSLSGGTSYAQKFQGRVTLTRDASIRTAYMELSRLGSDDTALYYCARASVSTITDFDYWGQGTLVAVSS VL: QSALTQPASVSGSPGQSITISCTGTSGDVGSYNLVSWYQQHPGKAPKLVIYEATKRPSGVSNRFFASKSGNTASLTISGLQAEDEADYYCCSYAGVRTVVFGGGTKLTVL ?
Response given: 0.13

Challenge: What measured EC50 goes with CnC2t1p1_B4 (antibody, V domains shown) VH: QVQLVQSGAEVKKPGASVKVSCKASGYTFTSYGISWVRQAPGQGLEWMGWISAYNGNTNYAQKLQGRVTMTTDTSTSTAYMELRSLRSDDTAVYYCARDGELLGWFDPWGQGTLVTVSS VL: QSALTQPASVSGSPGQSITISCTGTSSDVGSYNLVSWYQQHPGKAPKLMIYEGSKRPSGVSNRFSGSKSGNTASLTISGLQAEDEADYYCCSYAGSSTWVFGGGTKLTVL ?
Response given: 0.03
